# assay.info: COS7 lysate on small-molecule microarray, probe aHis, 635 nm (AID 1123);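 further: z-score combines 667nm fluorescence intensity with signal-to-noise per printed compound spot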
# condition.set: COS7 cell lysate, fluorescence, higher = more signal
recorded.metric: composite z-score
Just the number, please, no unit attached.

Consider the reported composite z-score for these molecules:
{"molecule": "C=CCOC(=O)[C@H]1[C@@H]2C(=O)O[C@@H](c3ccccc3)[C@@H](c3ccccc3)N2[C@@H](c2ccc(OCCOC(=O)[C@@H]3C[C@@H]4C(=O)N[C@@H](CCCCNC(C)=O)C(=O)N4[C@@H]3c3cccc(OCCO)c3)cc2)[C@]12C(=O)Nc1ccccc12", "composite z-score": 2.07}
{"molecule": "COC(=O)C1(Cc2ccccc2)C=C2C(=C(C)C(=O)C2C)CN1 (centres undefined)", "composite z-score": 2.62}
{"molecule": "CC(C)N1C(=O)c2ccccc2[C@](C)(C(=O)NCC(F)(F)F)[C@@H]1c1ccc(CO)cc1", "composite z-score": 2.55}

Turning now to a further record.
**Q:** Suppose we examine the molecule CCOC(=O)C[C@H]1[C@H](OC(=O)c2ccccc2-c2ccccc2)[C@@H](NC(=O)c2ccc3ccccc3c2)c2cc(OCCCO)ccc2N1C(=O)Cc1ccc(OC)cc1 ; what composite z-score value has been reported?
**A:** 0.14

###

# assay.info: probe aShh binding to arrayed compounds – biochemical, biotinylated probe, 635/667 nm fluorescence, primary screen (AID 1114);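 further: probe is biotin-labelled aShh protein from a stem cell growth factor screen; measures binding of labelled protein to compounds printed on the slide; score merges feature fluorescence at 667 nm with signal-to-noise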
# condition.set: small-molecule microarray, higher = more signal
recorded.metric: composite z-score
Just the number, please, no unit attached.

{"compound": "COC(=O)[C@@]1(Cc2ccc(F)cc2)[C@H]2c3cc(C(=O)N4CCCC4)n(Cc4cc(F)cc5c4OCOC5)c3C[C@H]2CN1C(=O)c1ccccc1", "recorded.metric": "composite z-score", "assay.value": 0.184}
{"compound": "C=CC[C@@]1(C(=O)N(C)C)N=C(c2ccc(OCCCO)cc2)O[C@@H]1c1ccccc1CN=[N+]=[N-]", "recorded.metric": "composite z-score", "assay.value": 0.246}
{"compound": "CC(C)(C)N1CC=CC23O[C@@H]4C=CCOC(=O)[C@@H]4[C@H]2C(=O)N(CCO)[C@@H]3C1=O (stereo partly drawn)", "recorded.metric": "composite z-score", "assay.value": 0.0136}
{"compound": "NC(=O)N1C(=O)C2C(C1=O)C1C=C(CCCO)C2C(c2ccc(CN3CCCC3)cc2)N1Cc1cc2c(cc1Br)OCO2 (stereo not drawn)", "recorded.metric": "composite z-score", "assay.value": 0.0796}
{"compound": "O=C1C=C(c2ccccc2)C(=O)C2=C1CC([C@H]1Oc3ccccc3S(=O)(=O)N3CCC[C@@H]13)=CC2", "recorded.metric": "composite z-score", "assay.value": -0.304}

**Q:** Suppose we examine the compound CC(C)C[C@@H]1NC(=O)[C@@H]2C[C@H](C(=O)NCCCCCCNC(=O)CS)[C@H](c3cccc(OCCO)c3)N2C1=O ; what composite z-score value has been reported?
**A:** 0.0611

**Q:** Suppose we examine the compound CC1CC/C=C\[C@H]2OC34C=CCN(Cc5ccccc5)C(=O)[C@H]3N(CCCCCCO)C(=O)[C@@H]4C2C(=O)O1 (stereo partly drawn) ; what composite z-score value has been reported?
**A:** -0.0146

**Q:** Suppose we examine the compound CC(C)C(=C=CC[C@H](O)c1ccccc1OCCO)C[C@H](O)COCc1ccccc1 ; what composite z-score value has been reported?
**A:** -0.0681
